Data origin, for the record: ChEMBL document CHEMBL3272086

log10(MST) listing for selected compounds.
- Tested on: Plasmodium berghei
- assayProcedure: Antimalarial activity against Plasmodium berghei infected in mouse assessed as change in mean survival time at 20 mg/kg, sc administered 72 hrs post infection as single dose (reference value: 6.2 days)
- Type: functional
- studyConditions: route subcutaneous
Hey, these are logged values: log10 of MST, days being the unit before logging.

// known answers, use as guide
compound	log10(MST)
CCCCN(CCCC)CC(O)c1cc2cc(Br)ccc2c2cc(SC)ccc12.Cl (stereo not drawn)	0.45
CCCCN(CCCC)CC(O)c1cc2cc(Cl)cc(Cl)c2c2cc(SC)ccc12.Cl (stereo not drawn)	1.02
CCCCN(CCCC)CC(O)c1cc2cc(S(C)(=O)=O)ccc2c2cc(Cl)c(Cl)cc12.Cl (stereo not drawn)	0.69
CCCCN(CCCC)CC(O)c1cc2cc(Br)ccc2c2cc(S(C)(=O)=O)ccc12.Cl (stereo not drawn)	-0.22
CCCCN(CCCC)CC(O)c1cc2cc(SC)ccc2c2c(Cl)c(Cl)ccc12.Cl (stereo not drawn)	0.97

// log10(MST) value for CCCCN(CCCC)CC(O)c1cc2cc(SC)ccc2c2cc(Cl)c(Cl)cc12.Cl (stereo not drawn) : 0.96

// log10(MST) value for CCCCN(CCCC)CC(O)c1cc2cc(SC)ccc2c2cc(SC)ccc12.Cl (stereo not drawn) : -0.15

// log10(MST) value for CCCCN(CCCC)CC(O)c1cc2cc(S(C)(=O)=O)ccc2c2c(Cl)c(Cl)ccc12.Cl (stereo not drawn) : 0.67
